Reference for the values: the supplement of paper PMC11208160

Assay: recombinant barcode read abundance after kanamycin selection (control-corrected) (log10(CPM+1)); higher = more efficient recombination; sequences stand for … in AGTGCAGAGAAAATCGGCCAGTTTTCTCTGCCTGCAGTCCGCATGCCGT…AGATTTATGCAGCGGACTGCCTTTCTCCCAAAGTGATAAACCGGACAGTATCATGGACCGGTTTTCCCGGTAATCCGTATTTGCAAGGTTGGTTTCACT; site = the 11-nt target;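 also: IS621 recombinase and bridge RNA in Escherichia coli cells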
So basically: recombinant barcode read abundance (log10) at 0.2 or higher? That is met. Lower than 0.2? That is not met.

QUERY: I'd appreciate it if you could say whether TAGTCCTCTTGGGTTCTAACCTGTTGCTC (site TAGTCCTCTCA) has recombinant barcode read abundance (log10) at least equal to 0.2.
RESULT: not met

QUERY: Is reported recombinant barcode read abundance (log10) greater than or equal to 0.2 here: CGGAGCTCTTGGGTTCTAACCTGTTGCCT (site CGAAGCTCTAG)
RESULT: met

QUERY: Threshold query (recombinant barcode read abundance (log10) >= 0.2) on GAGCGCTCTTGGGTTCTAACCTGTTGCTA (site GAGCGCTCTCA)
RESULT: met

QUERY: For this sequence, is measured recombinant barcode read abundance (log10) 0.2 or higher? GGGGCGTCTTGGGTTCTAACCTGTTGCCT (site GGGGCGCCTAG)
RESULT: met
